- measurement.notes: Caco-2 permeability assay
- Assay type: in vitro ADME
- run.parameters: human, apical to basolateral, 2 μM test concentration, 2 h at 37° C., read-out: Caco-2 permeability PappA-B
Values of Papp at 2 h, 2 μM greater than or equal to 10 ×10⁻⁶ cm/s map to T; values below map to F.

[
  {
    "compound": "Cc1n[nH]c2ccc(C3C(C#N)=C(c4ccc(F)cc4)NC(C(F)(F)F)=C3C#N)cc12 (racemic) [Example 13]",
    "group.label": "T"
  },
  {
    "compound": "CC1=C(C#N)C(c2ccc3[nH]nc(C)c3c2)C(C#N)=C(c2ccc(F)cc2)N1 (racemic) [Example B, reference compound]",
    "group.label": "F"
  },
  {
    "compound": "COc1ccc(C2=C(C#N)C(c3ccc4[nH]nc(C)c4c3)C(C#N)=C(C(F)F)N2)cc1 (centres unmarked) [Example 8]",
    "group.label": "T"
  },
  {
    "compound": "Cc1n[nH]c2ccc(C3C(C#N)=C(c4ccc(F)cc4)NC(C(F)F)=C3C#N)cc12 (racemic) [Example 6]",
    "group.label": "T"
  }
]
